Hello, the source for this data is patent US20190338002A1, in case you need it.

# target.or.test.system: T1, rat alpha CGRP (SEQ ID NO: 82) (rat)
# T1 construct: also called rat αCGRP; rat α-CGRP
# T1 peptide: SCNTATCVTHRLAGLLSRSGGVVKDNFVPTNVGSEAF
# assay.notes: competition ELISA in solution; free mutein detected on plate-bound biotinylated CGRP
# Description: Binding of lipocalin muteins to alpha and beta CGRP from human and rat in solution was tested in vitro using a competition ELISA assay format (FIG. 1). […] To allow for detection and quantification of plate-bound lipocalin muteins, the residual supernatants were discarded and 20 μL HRP-labeled anti-hNGAL antibody was added at a predetermined optimal concentration in PBS-T/BSA and incubated for 1 h at RT. […]
endpoint: IC50 (nM)
One number for each entry, in nM.

IC50 lookup needed for lipocalin mutein SEQ ID NO: 2 (designed binder) QDSTSDLIPAPPLSKVPLQQNFQDNQFHGKWYVVGEAGNWGLREDKDPKKMAATIYELKEDKSYNVTDVQFIEKKCDYWIGTFVPGSQPGEFTLGAIKSEPGQTSNLVRVVSTNYNQHAMVFFKEVWQNRELFWITLYGRTKELTSELKENFIRFSKSLGLPENHIVFPVPIDQCIDGSAWSHPQFEK , thanks.
35

IC50 lookup needed for lipocalin mutein SEQ ID NO: 4 (designed binder, biotinylated by NHS chemistry for capture in SPR) QDSTSDLIPAPPLSKVPLQQNFQDNQFHGKWYVVGWAGNTLLREDKDPTKMQATIYELKEDKSYNVTWVYFSEKKCNYHIETFVPGSQPGEFTLGTIKSYPGETSILVRVVSTNYNQHAMVFFKGVSQNREIFEITLYGRTKELTSELKENFIRFSKSLGLPENHIVFPVPIDQCIDGSAWSHPQFEK , thanks.
2.6

IC50 lookup needed for lipocalin mutein SEQ ID NO: 5 (designed binder) QDSTSDLIPAPPLSKVPLQQNFQDNQFHGKWYVVGRAGNAELREDKDPEKMEATIYELKEDKSYNVTDVGFWQKKCIYVIHTFVPGSQPGEFTLGNIKSYPGTTSALVRVVSTNYNQHAMVFFKVVRQNREWFEITLYGRTKELTSELKENFIRFSKSLGLPENHIVFPVPIDQCIDGSAWSHPQFEK , thanks.
21

Next item in the queue.
IC50 lookup needed for lipocalin mutein SEQ ID NO: 6 (designed binder) QDSTSDLIPAPPLSKVPLQQNFQDNQFHGKWYVVGIAGNWWLREDKDPLKMYATIYELKEDKSYNVTHVMFMTKKCDYTIRTFVPGSQPGEFTLGNIKSIPGMTSLLVRVVSTNYNQHAMVFFKFVWQNREWFHITLYGRTKELTSELKENFIRFSKSLGLPENHIVFPVPIDQCIDGSAWSHPQFEK , thanks.
0.77
